// data source = patent US8895585B2

Let's look at some compounds and their measured IC50.
Test system: THP-1 cells
procedure_details: TNFα generation assay
Format: cell-based, human
measurement_context: Homo sapiens, THP-1, THP-1 cells; Table 22; read-out: IC50 in TNFα generation assay

Examples with their reported IC50 follow.
- compound: "COc1ccc2cc(Nc3nc(N[C@@H]4CCCC[C@@H]4N)c(F)cc3C(N)=O)cnc2c1 (relative stereo) [Example 004-128]"
  target_or_test_system: "THP-1 cells"
  result: "65 to 130 nM"
- compound: "CC[C@@H](Nc1nc(Nc2ccc3c(cnn3CCF)c2)c(C(N)=O)cc1F)[C@H](C)N [Example 006-416]"
  target_or_test_system: "THP-1 cells"
  result: "65 to 130 nM"
- compound: "CCCC[C@H](CN)Nc1nc(Nc2ccc3c(cnn3CCF)c2)c(C(N)=O)cc1F [Example 006-414]"
  target_or_test_system: "THP-1 cells"
  result: "65 to 130 nM"

q: // query IC50 value for entry C[C@H](N)[C@@H](CC1CC1)Nc1nc(Nc2cncc(F)c2)c(C(N)=O)cc1F [Example 006-357]
a: 65 to 130 nM

q: Item: COc1cc(Nc2nc(N[C@H](CC(C)C)[C@H](C)N)c(F)cc2C(N)=O)ccn1 [Example 006-410]
a: 65 to 130 nM

q: Item: COc1cc(Nc2nc(N[C@H](c3ccc(F)cc3)[C@H](C)N)c(F)cc2C(N)=O)cc(OC)n1 [Example 006-557]
a: 130 to 200 nM

q: Item: COc1nn(C)c2ccc(Nc3nc(N[C@H](CC(C)C)[C@H](C)N)c(F)cc3C(N)=O)cc12 [Example 006-587]
a: 65 to 130 nM

q: Item: NC(=O)c1cc(F)c(N[C@@H]2CCCC[C@@H]2N)nc1Nc1cncc(-c2cncs2)c1 (relative stereo) [Example 004-074]
a: 65 to 130 nM

q: Item: CCn1nc(C)c2cc(Nc3nc(NC4CCCCC4N)c(F)cc3C(N)=O)ccc21 (centres unmarked) [Example 002-207]
a: 65 to 130 nM

q: Item: NC(=O)c1cc(F)c(NC2CCCCC2N)nc1Nc1cncc(-c2ccc3cnccc3c2)c1 (centres unmarked) [Example 002-190]
a: 130 to 200 nM

q: Item: CC[C@@H](Nc1nc(Nc2ccc3c(cnn3CCOC)c2)c(C(N)=O)cc1F)[C@H](C)N [Example 006-313]
a: 65 to 130 nM

q: Item: COc1cc(Nc2nc(N[C@H](CC(C)C)[C@H](C)N)c(F)cc2C(N)=O)cc(OC)n1 [Example 006-409]
a: 130 to 200 nM

q: Item: CCC[C@@H](Nc1nc(Nc2cncc(-c3ccccc3F)c2)c(C(N)=O)cc1F)[C@H](C)N [Example 006-222]
a: 65 to 130 nM

q: Item: COCc1cc(Nc2nc(N[C@@H]3CCCC[C@@H]3N)c(F)cc2C(N)=O)ccn1 (relative stereo) [Example 004-191]
a: 65 to 130 nM

q: Item: NC(=O)c1cc(F)c(N[C@@H]2CCCC[C@@H]2N)nc1Nc1ccnc(-n2nccn2)c1 (relative stereo) [Example 006-125]
a: 65 to 130 nM

q: Item: CCN(CC)CCn1ccc2c(Nc3nc(N[C@@H]4CCCC[C@@H]4N)c(F)cc3C(N)=O)ccnc21 [Example 004-028]
a: 65 to 130 nM

q: Item: COCCOc1cc(Nc2nc(N[C@H](C3CC3)[C@H](C)N)c(F)cc2C(N)=O)ccn1 [Example 006-431]
a: 65 to 130 nM

q: Item: CC[C@H](N)[C@@H](CC)Nc1nc(Nc2ccc3c(cnn3C)c2)c(C(N)=O)cc1F [Example 006-364]
a: 65 to 130 nM

q: Item: CC[C@@H](Nc1nc(Nc2cccc3c2cnn3CC)c(C(N)=O)cc1F)[C@H](C)N [Example 006-523]
a: < 65 nM

q: Item: NC(=O)c1cc(F)c(N[C@@H]2CCCC[C@@H]2N)nc1Nc1cncc(-c2ccc(N3CCCC3=O)cc2)c1 (relative stereo) [Example 004-226]
a: 130 to 200 nM

q: Item: NC(=O)c1cc(F)c(NC2CCCCC2N)nc1Nc1ccc(C2CC2)nc1 (centres unmarked) [Example 002-142]
a: 130 to 200 nM

q: Item: NC(=O)c1cc(F)c(N[C@@H]2CCCC[C@@H]2N)nc1Nc1ccnc(-n2ccnc2)c1 (relative stereo) [Example 006-128]
a: 130 to 200 nM

q: Item: CC(C)C[C@H](CN)Nc1nc(Nc2ccc3c(cnn3C)c2)c(C(N)=O)cc1F [Example 006-142]
a: < 65 nM
